# assay.context: in n-propanol, 288.15 K
result.type: solubility (mole fraction)
Would you mind answering with just the numeric figure?

Task item: Reported solubility (mole fraction), compound O=C1c2cccc(O)c2C(=O)c2c(O)cc(CO)cc21 : ____
Reply: 3.07e-05

---

# assay.context: in methanol, 293.15 K
result.type: solubility (mole fraction)
Write the value as a bare number.

Task item: Report solubility (mole fraction) for O=C1c2cccc(O)c2C(=O)c2c(O)cc(CO)cc21 please.
Reply: 4.29e-06

---

# assay.context: in water, 303.15 K
result.type: solubility (mole fraction)
No unit in the answer, only the number.

Task item: Fill in: solubility (mole fraction) of O=C1c2cccc(O)c2C(=O)c2c(O)cc(CO)cc21 is ___
Reply: 1.21e-06

---

# assay.context: in n-propanol, 318.15 K
result.type: solubility (mole fraction)
Reply briefly: the number, and no unit.

Task item: Value lookup for solubility (mole fraction); key = O=C1c2cccc(O)c2C(=O)c2c(O)cc(CO)cc21
Reply: 0.000116

Sourced from BigSolDB 2.1
